- System: most sensitive cancer cell line
- MEASUREMENT_PROTOCOL: cell activity: CTG anti-proliferation in most sensitive cancer cell line
- Assay type: cell-based
- ASSAY_CONDITIONS: APA analogs
# IC50 listing for each entry below

{"COMPOUND": "CC(=O)N[S@SP3](=O)(=O)c1ccc(NC(=O)c2nc(-c3ccc(C)cc3)cnc2N)cc1", "IC50": "3000 to 50000 nM"}
{"COMPOUND": "Cc1ccc(-c2cnc(N)c(C(=O)Nc3ccc(S(=O)(=O)NC4COC4)cc3)n2)cc1", "IC50": "< 3000 nM"}
{"COMPOUND": "CCOP(=O)(OCC)C(F)S(=O)(=O)c1ccc(NC(=O)c2nc(-c3ccc(C)cc3)cnc2N)cc1 (stereo not drawn)", "IC50": "< 3000 nM"}
{"COMPOUND": "CC(=O)NS(=O)(=O)c1ccc(NC(=O)c2nc(-c3ccc(C)s3)cnc2N)cc1", "IC50": "3000 to 50000 nM"}
{"COMPOUND": "CO[P@](C)(=O)CS(=O)(=O)c1ccc(NC(=O)c2nc(-c3ccc(C)cc3)cnc2N)cc1", "IC50": "< 3000 nM"}
{"COMPOUND": "Cc1ccc(-c2cnc(N)c(C(=O)Nc3ccc(S(N)(=O)=O)cc3)n2)cc1", "IC50": "< 3000 nM"}
{"COMPOUND": "CCOP(=O)(CC)CS(=O)(=O)c1ccc(NC(=O)c2nc(-c3ccc(C)cc3)cnc2N)cc1 (stereo not drawn)", "IC50": "< 3000 nM"}
{"COMPOUND": "CCOP(C)(=O)CS(=O)(=O)c1ccc(NC(=O)c2nc(-c3ccc(C)cc3)cnc2N)cc1 (stereo not drawn)", "IC50": "< 3000 nM"}
{"COMPOUND": "Cc1ccc(-c2cnc(N)c(C(=O)Nc3ccc(S(N)(=O)=O)c(F)c3)n2)cc1", "IC50": "< 3000 nM"}

---

- Test system: ACHN cell line
- MEASUREMENT_PROTOCOL: drug screen of the SelleckChem kinase inhibitor library with and without 5 uM SU-329, Cell-Titer Glo after 5 days
- Assay type: cell-based
- ASSAY_CONDITIONS: kinase inhibitor at 200 nM with and without 5 uM SU329; ACHN cell line; 5 days; Cell-Titer Glo

{"COMPOUND": "C[C@@H]1COCCN1c1cc(C2(S(C)(=O)=O)CC2)nc(-c2cccc3[nH]ccc23)n1", "ASSAY_TARGET": "ACHN cell line", "log2fc": "−0.01528"}
{"COMPOUND": "CC(C)n1nc(-c2cc3cc(O)ccc3[nH]2)c2c(N)ncnc21", "ASSAY_TARGET": "ACHN cell line", "log2fc": "−0.3157"}
{"COMPOUND": "CC1(COc2ccc3c(c2)ncn3-c2ccc3cccc(N4CCC(N)CC4)c3n2)COC1", "ASSAY_TARGET": "ACHN cell line", "log2fc": 0.3666}
{"COMPOUND": "Oc1ccc2ccccc2c1SSc1c(O)ccc2ccccc12", "ASSAY_TARGET": "ACHN cell line", "log2fc": 0.5168}
{"COMPOUND": "CC(=O)Nc1cccc(-n2c(=O)n(C3CC3)c(=O)c3c(Nc4ccc(I)cc4F)n(C)c(=O)c(C)c32)c1", "ASSAY_TARGET": "ACHN cell line", "log2fc": 0.4803}
{"COMPOUND": "CC1=C(C(=O)Nc2cc3cn[nH]c3cc2F)C(c2ccc(C(F)(F)F)cc2)CC(=O)N1 (stereo not drawn) [GSK429286A]", "ASSAY_TARGET": "ACHN cell line", "log2fc": "−0.03939"}
{"COMPOUND": "CCc1cnn2c(NCc3ccc[n+]([O-])c3)cc(N3CCCC[C@H]3CCO)nc12 [Dinaciclib (SCH727965)]", "ASSAY_TARGET": "ACHN cell line", "log2fc": 1.402}
{"COMPOUND": "Nc1ccc(C(=O)Nc2cccc(-c3nc(N4CCOCC4)c4oc5ncccc5c4n3)c2)cn1", "ASSAY_TARGET": "ACHN cell line", "log2fc": "−0.5268"}
{"COMPOUND": "Cn1cc(-c2ccc3ncc(Cc4ccc5ncccc5c4)n3n2)cn1", "ASSAY_TARGET": "ACHN cell line", "log2fc": 0.5846}
{"COMPOUND": "CC(C)(C)c1nc(-c2cccc(NS(=O)(=O)c3c(F)cccc3F)c2F)c(-c2ccnc(N)n2)s1 [Dabrafenib (GSK2118436), dabrafenib, reference compound]", "ASSAY_TARGET": "ACHN cell line", "log2fc": "−0.314"}
{"COMPOUND": "C[C@H](Nc1ncnc2nc[nH]c12)c1cc2cccc(Cl)c2c(=O)n1-c1ccccc1", "ASSAY_TARGET": "ACHN cell line", "log2fc": "−0.2128"}
{"COMPOUND": "CO[C@@H](C(=O)N1Cc2[nH]nc(NC(=O)c3ccc(N4CCN(C)CC4)cc3)c2C1)c1ccccc1", "ASSAY_TARGET": "ACHN cell line", "log2fc": "−0.1537"}
{"COMPOUND": "Cn1cc(-c2ccc3nnc(C(F)(F)c4ccc5ncccc5c4)n3n2)cn1", "ASSAY_TARGET": "ACHN cell line", "log2fc": 0.02907}
{"COMPOUND": "CN1CCN(CCOc2cc(OC3CCOCC3)c3c(Nc4c(Cl)ccc5c4OCO5)ncnc3c2)CC1", "ASSAY_TARGET": "ACHN cell line", "log2fc": 0.4009}
{"COMPOUND": "CCn1c(-c2nonc2N)nc2c(C#CC(C)(C)O)ncc(OC[C@H]3CCCNC3)c21", "ASSAY_TARGET": "ACHN cell line", "log2fc": "−0.5999"}

---

# log2fc listing for each entry below
- Tested on: ACHN cell line
- MEASUREMENT_PROTOCOL: drug screen of the SelleckChem kinase inhibitor library with and without 5 uM SU-329, Cell-Titer Glo after 5 days
- Format: cell-based
- ASSAY_CONDITIONS: kinase inhibitor at 200 nM with and without 5 uM SU329; ACHN cell line; 5 days; Cell-Titer Glo
Counter-ions that a name gives are not always drawn.

{"MOLECULE": "[H]/N=C(/N)N/C(=N/[H])NCCc1ccccc1 [Phenformin HCl]", "log2fc": 0.5945}
{"MOLECULE": "CNC(=O)c1nn(C)c2c1C(C)(C)Cc1cnc(Nc3ccc(N4CCN(C)CC4)cc3)nc1-2", "log2fc": 0.9986}
{"MOLECULE": "COc1cc(N2CCC(N)CC2)ccc1Nc1ncc(Cl)c(-c2c[nH]c3ccccc23)n1", "log2fc": "−0.06328"}
{"MOLECULE": "CC(C)(O)CC(=O)NCCn1ccc2ncnc(Nc3ccc(Oc4cccc(C(F)(F)F)c4)c(Cl)c3)c21 [TAK-285, reference compound]", "log2fc": 0.3876}

---

- Tested on: ACHN cell line
- MEASUREMENT_PROTOCOL: drug screen of the SelleckChem kinase inhibitor library with and without 5 uM SU-329, Cell-Titer Glo after 5 days
- Format: cell-based
- ASSAY_CONDITIONS: kinase inhibitor at 200 nM with and without 5 uM SU329; ACHN cell line; 5 days; Cell-Titer Glo
// label = true if log2fc is not less than 0.6, otherwise false

{"MOLECULE": "COc1cc2c(Oc3ccc(NC(=O)C4(C(=O)Nc5ccc(F)cc5)CC4)cc3F)ccnc2cc1OCCCN1CCOCC1", "ASSAY_TARGET": "ACHN cell line", "CLASS": "false"}
{"MOLECULE": "COc1ccc(-c2ccc3ncc4c(c3c2)n(-c2ccc(N3CCNCC3)c(C(F)(F)F)c2)c(=O)n4C)cn1", "ASSAY_TARGET": "ACHN cell line", "CLASS": "false"}
{"MOLECULE": "O=C(NC[C@H](O)CO)c1ccncc1Nc1ccc(I)cc1F [Pimasertib (AS-703026), AS703026, reference compound]", "ASSAY_TARGET": "ACHN cell line", "CLASS": "false"}
{"MOLECULE": "Cc1cc(Nc2cc(N3CCN(C)CC3)nc(/C=C/c3ccccc3)n2)n[nH]1", "ASSAY_TARGET": "ACHN cell line", "CLASS": "true"}
{"MOLECULE": "CNC(=O)c1ccccc1Nc1nc(Nc2ccc(N3CCOCC3)cc2OC)ncc1Cl", "ASSAY_TARGET": "ACHN cell line", "CLASS": "false"}
{"MOLECULE": "Cc1c(NC(=O)c2ccc(C(C)(C)C)cc2)cccc1-c1cn(C)c(=O)c(Nc2ccc(C(=O)N3CCOCC3)cc2)n1", "ASSAY_TARGET": "ACHN cell line", "CLASS": "true"}
{"MOLECULE": "CCc1cc(Nc2nccc(-c3c(-c4ccc(OC)c(C(=O)Nc5c(F)cccc5F)c4)nc4ccccn34)n2)c(OC)cc1N1CCC(N2CCN(S(C)(=O)=O)CC2)CC1 [GSK1904529A]", "ASSAY_TARGET": "ACHN cell line", "CLASS": "true"}
